The values you see were collected from PubChem BioAssay AID2060891.

system: K98450-129-R-PDC complex spheroid growth, percent test/control; test: Anticancer human tumor K98450-129-R-PDC patient-derived colon adenocarcinoma cell line growth inhibition [RAS]; details: second compound 0.003 µM; first compound 1 µM; hits give low values
Readings of viability, T/C for the listed compounds
Numbers only; they are read as %.

Look up viability, T/C for this compound: CC(Nc1ccc2c(c1)OCCn1cc(N3C(=O)OCC3C(F)F)nc1-2)C(N)=O (configuration not stated) + CCn1c(-c2cccnc2C(C)OC)c2c3cc(ccc31)N1CCOC(CC(NC(=O)C(C(C)C)N(C)C(=O)C3(F)CCN(C(=O)C#CC(C)(C)N(C)C)CC3)C(=O)N3CCCC(N3)C(=O)OCC(C)(C)C2)C1 45.2

What does the data say about its viability, T/C? Entry: CC(C)NCC(C(=O)N1CCN(c2ncnc3c2C(C)CC3O)CC1)c1ccc(Cl)cc1 (configuration not stated) + CCn1c(-c2cccnc2C(C)OC)c2c3cc(ccc31)N1CCOC(CC(NC(=O)C(C(C)C)N(C)C(=O)C3(F)CCN(C(=O)C#CC(C)(C)N(C)C)CC3)C(=O)N3CCCC(N3)C(=O)OCC(C)(C)C2)C1 51.2

---

tested on: K98450-129-R-PDC complex spheroid growth, percent test/control; assay: Anticancer human tumor K98450-129-R-PDC cell line growth inhibition [RAS]; conditions: second compound 0.01 µM; first compound 10 µM; hits give low values;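 further: luminescence used as a proxy for viable cell amount; spheroids exposed to agents for seven days before the viability readout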
Endpoint label: viability, T/C (%)
// units = %; emit number, no label

CCC(CC)c1cc(NC2CCC(N)C2)n2nccc2n1 (centres undefined) + C=CC(=O)N1CCN(c2nc(OCC3CCCN3C)nc3c(F)c(-c4nc(N)cc(C)c4C(F)(F)F)c(Cl)cc23)C(C)C1 | 15.1
CC(Nc1ccc2c(c1)OCCn1cc(N3C(=O)OCC3C(F)F)nc1-2)C(N)=O (centres undefined) + C=CC(=O)N1CCN(c2nc(OCC3CCCN3C)nc3c(F)c(-c4nc(N)cc(C)c4C(F)(F)F)c(Cl)cc23)C(C)C1 | 53.8

# query: viability, T/C of entry Cc1nc(N2CCC3(CC2)COC(C)C3N)c(CO)nc1Sc1ccnc(N)c1Cl (centres undefined) + C=CC(=O)N1CCN(c2nc(OCC3CCCN3C)nc3c(F)c(-c4nc(N)cc(C)c4C(F)(F)F)c(Cl)cc23)C(C)C1 7.24

I am curious: what viability, T/C value has been reported for CC1(O)CCCC1n1c(=O)c(C(F)F)cc2cnc(NC3CCN(S(C)(=O)=O)CC3)nc21 (centres undefined) + C=CC(=O)N1CCN(c2nc(OCC3CCCN3C)nc3c(F)c(-c4nc(N)cc(C)c4C(F)(F)F)c(Cl)cc23)C(C)C1 ? 41.2

---

system: K98450-129-R-PDC complex spheroid growth, percent test/control; test: Anticancer human tumor K98450-129-R-PDC cell line growth inhibition [RAS]; details: second compound 0.00949 µM; first compound 3.16 µM; hits give low values;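 further: luminescence used as a proxy for viable cell amount; spheroids exposed to agents for seven days before the viability readout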
Item-by-item account of viability, T/C
Quick reminder: number only, in %, skip the unit.

Solved entries (count: 2):
CC1(O)CCCC1n1c(=O)c(C(F)F)cc2cnc(NC3CCN(S(C)(=O)=O)CC3)nc21 (stereo not drawn) + CCn1c(-c2cccnc2C(C)OC)c2c3cc(ccc31)N1CCOC(CC(NC(=O)C(C(C)C)N(C)C(=O)C3(F)CCN(C(=O)C#CC(C)(C)N(C)C)CC3)C(=O)N3CCCC(N3)C(=O)OCC(C)(C)C2)C1 | 29.3
CCC(CC)c1cc(NC2CCC(N)C2)n2nccc2n1 (stereo not drawn) + CCn1c(-c2cccnc2C(C)OC)c2c3cc(ccc31)N1CCOC(CC(NC(=O)C(C(C)C)N(C)C(=O)C3(F)CCN(C(=O)C#CC(C)(C)N(C)C)CC3)C(=O)N3CCCC(N3)C(=O)OCC(C)(C)C2)C1 | 20.8

Would you kindly look at the next entry?
Quick one: viability, T/C for CC(Nc1ccc2c(c1)OCCn1cc(N3C(=O)OCC3C(F)F)nc1-2)C(N)=O (stereo not drawn) + CCn1c(-c2cc(N3CCN(C)CC3)cnc2C(C)OC)c2c3cc(ccc31)-c1csc(n1)CC(NC(=O)C1CC1C)C(=O)N1CCCC(N1)C(=O)OCC(C)(C)C2 ? 54.8
